Entry source: paper PMC5591402

# test target: N2.2
# protocol notes: FP
Where no end group is shown, it is not given here.
measured quantity: Kd

Can you share its Kd? I mean this binder: GYQDYEPEA (also: TAMRA fluorophore, position not given here) [TAMRA-labeled α-synuclein peptide]
0.023 µM
